Measured IC50, listed per entry.
- system-name: BCL-XL (Homo sapiens (Human))
- Sequence (Q07817 1-212): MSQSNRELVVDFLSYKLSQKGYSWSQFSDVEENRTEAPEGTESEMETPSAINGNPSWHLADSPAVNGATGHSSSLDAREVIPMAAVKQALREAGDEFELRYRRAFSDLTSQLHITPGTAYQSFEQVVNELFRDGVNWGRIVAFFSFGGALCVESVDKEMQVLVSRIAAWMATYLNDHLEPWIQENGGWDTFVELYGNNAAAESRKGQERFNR
- measurement-protocol: Protein-protein interaction assay BCL-XL/Bad BH3 peptide (BCL-XL assay, TR-FRET)
- study-conditions: read-out: BCL-XL Assay IC50 (median)

Below are worked cases with known answers.
INSERT INTO results (compound, measurement) VALUES
  ('Cc1c2c(nn1C)C(CCO)OCCCCn1c(C(=O)O)c(CCCOc3cccc4ccccc34)c3ccc(Cl)c-2c31 (racemic) [Example 26]', '> 20 µM'),
  ('CCc1c2c(nn1C)C(CCN1CCOCC1)OCCCCn1c(C(=O)O)c(CCCOc3cccc4cc(F)ccc34)c3ccc(Cl)c-2c31 (racemic) [Example 22]', '> 20 µM'),
  ('CCc1c2c(nn1C)C(C1CC1)OCCCCn1c(C(=O)O)c(CCCOc3cccc4cc(F)ccc34)c3ccc(Cl)c-2c31 (single isomer, unassigned; enantiomer 1) [Example 39]', '18.1 µM');

Now for another entry.
Identify the reported IC50 for the following entry. Cc1c2c(nn1C)C(CCN1CCOCC1)OCCCCn1c(C(=O)O)c(CCCOc3cccc4cc(F)ccc34)c3ccc(Cl)c-2c31 (single isomer, unassigned; enantiomer 2) [Example 18] > 20 µM

Measured values drawn from patent US11440923B2 for this set.
